Data provenance is the supplement of paper PMC10567573.

B1: GMCL1 (parent)
chain: FCYCAGSHKRKRSSGSFCYCHPDS

variants of: B1; assay: protein stability index of a GFP-peptide fusion (GPS, HEK-293T) (PSI 1-6); higher = more stable; settings: c terminus: a fixed tail appended;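 further: lentivirally expressed fusions sorted by FACS into six bins by GFP to DsRed ratio, PSI derived from sequencing read proportions per bin multiplied by bin number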
Measurement kind: protein stability index

# Variant description, Measurement kind, Meas value
data = [
    ("Y19G", "protein stability index", 2.52),
    ("P22C", "protein stability index", 2.12),
    ("C18E", "protein stability index", 2.74),
    ("S13E", "protein stability index", 2.02),
    ("S24T", "protein stability index", 2.02),
    ("C20Q", "protein stability index", 1.5),
    ("R12A", "protein stability index", 2.04),
    ("P22F", "protein stability index", 1.38),
    ("G15N", "protein stability index", 2.81),
    ("C20P", "protein stability index", 1.94),
    ("H8Y", "protein stability index", 2.57),
    ("F17C", "protein stability index", 3.2),
    ("Y19E", "protein stability index", 3.63),
    ("S7W", "protein stability index", 1.9),
    ("S7Y", "protein stability index", 1.59),
    ("C2R", "protein stability index", 3.48),
    ("K11T", "protein stability index", 2.22),
    ("H8M", "protein stability index", 1.66),
    ("F1K", "protein stability index", 3.78),
    ("H21P", "protein stability index", 2.21),
    ("R10A", "protein stability index", 2.48),
    ("P22H", "protein stability index", 2.29),
]
